Tested system: MGL C201G mutant (Rattus norvegicus, UniProt Q8R431, C201G)
Sequence (Q8R431 1-303 C201G): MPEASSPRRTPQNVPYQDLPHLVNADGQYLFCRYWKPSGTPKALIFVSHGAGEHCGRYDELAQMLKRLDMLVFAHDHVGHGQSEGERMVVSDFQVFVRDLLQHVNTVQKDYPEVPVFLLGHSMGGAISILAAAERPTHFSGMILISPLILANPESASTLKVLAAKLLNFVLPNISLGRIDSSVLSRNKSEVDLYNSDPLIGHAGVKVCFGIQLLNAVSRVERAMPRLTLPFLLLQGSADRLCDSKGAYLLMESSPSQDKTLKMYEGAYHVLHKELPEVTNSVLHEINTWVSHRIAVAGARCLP
Test: Inhibition of MGL C201G mutant in HeLa cell extracts
Readout name: IC50 (nM)
Expressed in nM, but write only the number.

Entry CC(C)=CCC[C@@H](C)[C@@H]1CC[C@]2(C)C3=C(CC[C@@]12C)[C@@]1(C)CC[C@H](O)C(C)(C)[C@@H]1CC3 [euphol] — recorded IC50 = 2600

----------
Tested system: MGL C208G mutant (Rattus norvegicus, UniProt Q8R431, C208G)
Sequence (Q8R431 1-303 C208G): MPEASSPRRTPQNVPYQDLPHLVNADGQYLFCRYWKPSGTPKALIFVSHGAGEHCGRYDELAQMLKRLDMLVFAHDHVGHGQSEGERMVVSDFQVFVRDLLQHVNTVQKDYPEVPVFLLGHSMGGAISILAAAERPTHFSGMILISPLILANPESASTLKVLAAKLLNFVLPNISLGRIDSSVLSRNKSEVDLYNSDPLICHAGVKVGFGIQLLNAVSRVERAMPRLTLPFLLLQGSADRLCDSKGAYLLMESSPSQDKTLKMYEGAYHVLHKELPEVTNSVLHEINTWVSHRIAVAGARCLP
Test: Inhibition of MGL C208G mutant in HeLa cell extracts
Readout name: IC50 (µM)
Expressed in µM, but write only the number.

Entry COC(=O)[C@]1(C)CC[C@]2(C)CC[C@]3(C)C4=CC=C5C(=CC(=O)C(O)=C5C)[C@]4(C)CC[C@@]3(C)[C@@H]2C1 [Pristimerin] — recorded IC50 = 1.18

----------
Tested system: purified recombinant rat MGL (Rattus norvegicus)
Test: Inhibition of purified recombinant MGL
Assay type: biochemical
Measurement parameters: read-out: IC50, inhibition of purified recombinant MGL
Readout name: pIC50
Remember, pIC50 is on a log scale: it is -log10 of the molar concentration.

Entry CC(=O)Oc1cc2c(c(C)c1OC(C)=O)CC=C1[C@@]2(C)CC[C@@]2(C)C3C[C@](C)(C(=O)O)CC[C@]3(C)CC[C@]12C (stereo partly shown) [Dihydrocelastryl Diacetate] — recorded pIC50 = 4.82

----------
Tested system: rat ABHD6 (Rattus norvegicus)
Sequence (Q5XI64 1-337): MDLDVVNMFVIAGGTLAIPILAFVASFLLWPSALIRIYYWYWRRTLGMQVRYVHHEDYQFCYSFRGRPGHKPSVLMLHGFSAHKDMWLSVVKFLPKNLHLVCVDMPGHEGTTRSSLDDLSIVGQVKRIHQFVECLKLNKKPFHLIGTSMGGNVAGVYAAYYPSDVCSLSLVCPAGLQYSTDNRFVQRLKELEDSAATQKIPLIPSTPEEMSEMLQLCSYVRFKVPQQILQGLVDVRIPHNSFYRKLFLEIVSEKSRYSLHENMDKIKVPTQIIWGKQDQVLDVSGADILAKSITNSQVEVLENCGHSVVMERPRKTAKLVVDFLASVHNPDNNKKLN
For each of the compounds below, state its IC50.

Entry CC(C)=CCC[C@@H](C)[C@@H]1CC[C@]2(C)C3=C(CC[C@@]12C)[C@@]1(C)CC[C@H](O)C(C)(C)[C@@H]1CC3 [euphol] — recorded IC50 = 9 µM

Entry COC(=O)[C@]1(C)CC[C@]2(C)CC[C@]3(C)C4=CC=C5C(=CC(=O)C(O)=C5C)[C@]4(C)CC[C@@]3(C)[C@@H]2C1 [Pristimerin] — recorded IC50 = 0.098 µM
